Give measured T/C for each item. Keep answers brief.
test system: L1210 leukemia ip in BDF1 mice, survival T/C; test: NCI In Vivo Anticancer Drug Screen. Data for tumor model L1210 Leukemia (intraperitoneal) in B6D2F1 (BDF1) mice; conditions: endpoint: mean survival time; dose: 25.0 mg/kg/injection; schedule: Q01DX009 (ip); vehicle: water; higher = longer survival
Toxic doses and inconclusive results are not listed.

Prompt: Suppose we examine the molecule "O=Cc1ccc(/C=C2\NC(=O)NC2=O)cc1" ; what T/C value has been reported?
Response: 90 % of control

Prompt: Suppose we examine the molecule "O=C(c1c(F)c(F)c(F)c(F)c1F)N1CC1" ; what T/C value has been reported?
Response: 96 % of control

Prompt: Suppose we examine the molecule CCN(CC)CCCC(C)NC/C=C/CNC(C)CCCN(CC)CC (stereo not given) ; what T/C value has been reported?
Response: 104 % of control

Prompt: Suppose we examine the molecule "NC(N)=Nc1ccc(OC(=O)c2ccc(N=C(N)N)cc2)cc1" ; what T/C value has been reported?
Response: 96 % of control

Prompt: Suppose we examine the molecule "CCN(Cc1ccc(Cl)c(Cl)c1)c1ccc2nc(N)nc(N)c2c1C" ; what T/C value has been reported?
Response: 110 % of control

----------
Give measured T/C for each item. Keep answers brief.
system: L1210 leukemia ip in BDF1 mice, survival T/C; assay: NCI In Vivo Anticancer Drug Screen. Data for tumor model L1210 Leukemia (intraperitoneal) in B6D2F1 (BDF1) mice; conditions: endpoint: mean survival time; dose: 400.0 mg/kg/injection; schedule: Q04DX003 (ip); vehicle: saline with Tween-80; higher = longer survival
Toxic doses and inconclusive results are not listed.

Prompt: Suppose we examine the compound "CCCCN(CCCC)CCC(=O)OCC" ; what T/C value has been reported?
Response: 89 % of control

Prompt: Suppose we examine the compound "CCCNC(=O)Nc1cccc(Cl)c1C" ; what T/C value has been reported?
Response: 100 % of control

Prompt: Suppose we examine the compound CC1CC(CC(=O)O)(C(=O)O)CC(C)O1 (stereo not given) ; what T/C value has been reported?
Response: 95 % of control

Prompt: Suppose we examine the compound "O=S(=O)(NC(=S)Nc1ccc(Cl)cc1)c1ccccc1" ; what T/C value has been reported?
Response: 93 % of control

Prompt: Suppose we examine the compound CC(C)C(Br)C(=O)NCC(=O)O (stereo not given) ; what T/C value has been reported?
Response: 98 % of control

Prompt: Suppose we examine the compound "Nc1nc(N)c(N=Nc2ccc(S(=O)(=O)O)cc2)c(N)n1" ; what T/C value has been reported?
Response: 104 % of control

Prompt: Suppose we examine the compound COC(=O)C1C2C=CC(C2)C1C(=O)OC (stereo not given) ; what T/C value has been reported?
Response: 92 % of control

Prompt: Suppose we examine the compound CC(C)NC(=O)C1C2CCC(CC2)C1C(=O)NC(C)C (stereo not given) ; what T/C value has been reported?
Response: 86 % of control

Prompt: Suppose we examine the compound "Cc1cccc(NC(=O)c2ccccc2)n1" ; what T/C value has been reported?
Response: 92 % of control

Prompt: Suppose we examine the compound "CC(C)CN(CC(C)C)c1ccc([N+](=O)[O-])cc1[N+](=O)[O-]" ; what T/C value has been reported?
Response: 96 % of control

Prompt: Suppose we examine the compound "COc1c(C)ccc([N+](=O)[O-])c1OC" ; what T/C value has been reported?
Response: 97 % of control

Prompt: Suppose we examine the compound "c1cc(C2CCCCC2)ccc1-c1ccc(C2CCCCC2)cc1" ; what T/C value has been reported?
Response: 90 % of control

Prompt: Suppose we examine the compound CC1(C)OC2COC3(COC(C)(C)O3)C(OS(C)(=O)=O)C2O1 (stereo not given) ; what T/C value has been reported?
Response: 95 % of control

Prompt: Suppose we examine the compound COc1ccc(CC2C(=O)OC(=O)C2Cc2ccc(OC)c(OC)c2)cc1OC (stereo not given) ; what T/C value has been reported?
Response: 94 % of control

Prompt: Suppose we examine the compound "F[Si](c1cccc2ccccc12)(c1cccc2ccccc12)c1cccc2ccccc12" ; what T/C value has been reported?
Response: 97 % of control
